System: purified ITK (Invitrogen PV3875) (Homo sapiens, UniProt Q08881)
Construct: purchased Invitrogen PV3875
Sequence (Q08881 whole entry): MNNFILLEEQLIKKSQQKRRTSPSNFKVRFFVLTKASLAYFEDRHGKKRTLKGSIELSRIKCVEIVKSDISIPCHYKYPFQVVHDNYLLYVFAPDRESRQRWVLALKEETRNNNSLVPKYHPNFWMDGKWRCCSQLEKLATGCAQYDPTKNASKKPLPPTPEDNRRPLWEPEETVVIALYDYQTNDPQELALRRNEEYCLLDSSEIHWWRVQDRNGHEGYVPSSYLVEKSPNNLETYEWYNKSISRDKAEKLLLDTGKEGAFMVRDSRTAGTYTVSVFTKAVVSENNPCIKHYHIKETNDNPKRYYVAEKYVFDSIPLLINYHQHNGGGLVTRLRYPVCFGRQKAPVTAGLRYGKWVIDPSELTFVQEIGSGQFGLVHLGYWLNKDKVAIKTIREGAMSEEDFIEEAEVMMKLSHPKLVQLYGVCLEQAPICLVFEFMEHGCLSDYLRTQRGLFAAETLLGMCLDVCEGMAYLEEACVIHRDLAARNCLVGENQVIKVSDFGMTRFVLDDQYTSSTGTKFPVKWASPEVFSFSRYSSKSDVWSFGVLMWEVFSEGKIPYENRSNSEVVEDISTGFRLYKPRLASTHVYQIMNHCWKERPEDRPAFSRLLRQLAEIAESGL
Measurement description: ITK peptide phosphorylation assay (Caliper LabChip or LCMS)
Type: biochemical
Assay conditions: Table 1, Examples 141-279
# pKi listing for each entry below
Hey, just a heads up that pKi is the negative log base 10 of the concentration in molar.

Known results for molecules:
- Molecule: "CN1CCC(Nc2ccc3[nH]nc(C(=O)Nc4cnn(Cc5cccc(C#N)c5)c4)c3c2)CC1"
  pKi: 8.88
- Molecule: "O=C(Nc1cnn(Cc2cccnc2)c1)c1n[nH]c2cc(-c3cn[nH]c3)ccc12"
  pKi: 8.95
- Molecule: "CNc1cncc(-c2ccc3c(C(=O)Nc4cnn(Cc5ccccc5)c4)n[nH]c3c2)n1"
  pKi: 7.61

Moving on to another molecule below.
Query :: Given the entry COCCN(C)CC(c1cccnc1)n1cc(NC(=O)c2n[nH]c3cc(-c4cncc(OC)c4)ccc23)cn1 (stereo not shown) [Example 228] , report its measured pKi.
Result :: 8.26
